target: SF9 affinity purified rat FPT (Rattus norvegicus, UniProt Q02293+Q04631); test: PFT (FPT) inhibitory activity assay, radiolabeled farnesyl pyrophosphate and biotinyl peptide, streptavidin beads; conditions: HEPES buffer pH 7.4, 30° C., 30 minutes; read-out: FTase IC50
recorded metric: pIC50
Notebook: values listed as pIC50 are -log10 of the concentration (mol/L).

Here's what some known entries look like.
CC(C)(C)c1cccc(OCc2c(O[C@H](Cn3ccnc3)c3ccccc3)ccc3c2CCCC3=O)c1 : 9.00
O=C1CCCc2c1ccc(O[C@H](Cn1ccnc1)c1ccccc1)c2CSC1CCCCC1 : 9.00

Which pIC50 value is on record for O=C1CCCc2c1ccc(O[C@H](Cn1ccnc1)c1ccccc1)c2CSc1cccc2ccccc12 [Compound 10a] ? 7.52

Which pIC50 value is on record for CSCC[C@H](NC(=O)OC(C)(C)C)C(=O)NCc1c(O[C@H](Cn2ccnc2)c2ccccc2)ccc2c1CCCC2=O [Compound 42j] ? 8.36

Which pIC50 value is on record for O=C(NC(CO)CO)c1ccc(S(=O)(=O)Cc2c(O[C@H](Cn3ccnc3)c3ccccc3)ccc3c2CCCC3=O)cc1 ? 7.82

Which pIC50 value is on record for CCOC(=O)C(C)NC(=O)c1ccccc1S(=O)(=O)Cc1c(O[C@H](Cn2ccnc2)c2ccccc2)ccc2c1CCCC2=O (stereo partly drawn) ? 8.40

Which pIC50 value is on record for CC(C)Cc1c(O[C@H](Cn2ccnc2)c2ccccc2)ccc2c1CCCC2=O ? 9.00

Which pIC50 value is on record for CC(O)CNC(=O)c1ccc(S(=O)(=O)Cc2c(O[C@H](Cn3ccnc3)c3ccccc3)ccc3c2CCCC3=O)cc1 (stereo partly drawn) ? 9.15

Which pIC50 value is on record for O=C1CCCc2c1ccc(O[C@H](Cn1ccnc1)c1ccccc1)c2COc1ccccc1Cl ? 8.22

Which pIC50 value is on record for Cc1ccc(OCc2c(O[C@H](Cn3ccnc3)c3ccccc3)ccc3c2CCCC3=O)cn1 [Compound 83] ? 7.74

====

# pIC50 listing for each entry below
target: SF9 affinity purified rat FPT (Rattus norvegicus, UniProt Q02293+Q04631); assay: PFT (FPT) inhibitory activity assay, radiolabeled farnesyl pyrophosphate and biotinyl peptide, streptavidin beads; details: HEPES buffer pH 7.4, 30° C., 30 minutes; read-out: FTase IC50
Notebook: values listed as pIC50 are -log10 of the concentration (mol/L).

Here's what some known entries look like.
O=C1CCCc2c1ccc(O[C@H](Cn1ccnc1)c1ccccc1)c2CNc1ccc(F)cc1 [Compound 151] : 7.72
C[C@@H](O)CNC(=O)c1cccc(S(=O)(=O)Cc2c(O[C@H](Cn3ccnc3)c3ccccc3)ccc3c2CCCC3=O)c1 [Compound 204] : 9.19
O=C1CCCc2c1ccc(O[C@H](Cn1ccnc1)c1ccccc1)c2COC1CCCC1 [Compound 17] : 9.52

Now, please, on to the next compound.
Which pIC50 value is on record for O=C(O)c1ccccc1S(=O)(=O)Cc1c(O[C@H](Cn2ccnc2)c2ccccc2)ccc2c1CCCC2=O [Compound 159] ? 8.26

====

biological target: SF9 affinity purified rat FPT (Rattus norvegicus, UniProt Q02293+Q04631); experiment: PFT (FPT) inhibitory activity assay, radiolabeled farnesyl pyrophosphate and biotinyl peptide, streptavidin beads; details: HEPES buffer pH 7.4, 30° C., 30 minutes; read-out: FTase IC50
recorded metric: pIC50
Notebook: values listed as pIC50 are -log10 of the concentration (mol/L).

Which pIC50 value is on record for O=C(NCCO)c1cccc(SCc2c(O[C@H](Cn3ccnc3)c3ccccc3)ccc3c2CCCC3=O)c1 ? 8.30

Which pIC50 value is on record for O=C1CCCc2c1ccc(O[C@H](Cn1ccnc1)c1cccnc1)c2CCc1ccccc1 (single isomer, unassigned) [Compound 63a] ? 9.40
